Listed below: pEC50 values for each entry.
Test system: T-47D
assay.comment: Caspase cascade activation assay in T-47D cells (N-(Ac-DEVD)-N'-ethoxycarbonyl-R110 fluorogenic substrate)
Type: cell-based
protocol.conditions: T-47D human breast cancer cells, 24 h incubation; sigmoidal dose-response; read-out: Caspase potency EC50
Note on units: pEC50 is unitless, being -log10 of a concentration expressed in mol/L.

CCC=CCC=CCC=CCC=CCC=CCC=CCCC(=O)OCn1ccc2c3c(ccc21)C(c1cc(Br)c(OC)c(OC)c1)C(C#N)=C(N)O3 (centres unmarked) | 7.26

With those in mind, consider the next molecule.
In: Fill blank: measured pEC50 of the molecule CCC=CCC=CCC=CCC=CCC=CCC=CCCC(=O)OCn1ccc2c3c(ccc21)C(c1cncc(C)c1)C(C#N)=C(N)O3 (centres unmarked) is ____.
Out: 7.29
